Assay: protein stability index of a GFP-peptide fusion (GPS, HEK-293T) (PSI 1-6); higher = more stable;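 note: 24-mer peptide tiles fused after GFP, lentivirally expressed, FACS-sorted into six equal bins by GFP/DsRed ratio, decoded by Illumina sequencing, PSI is the read-weighted mean bin number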
Settings: treatment: DMSO; c terminus: a fixed tail appended
measured.quantity: protein stability index

                        sequence_data  endpoint_value
0  LSLASLLVYVAAFSIGLGPMPWLV [SLC2A12]            2.93
1    ATYRRLLEGEDAHLSSQQASGQSY [KRT16]            4.46
2   TMQLFSKQNPSRQEVTKLQQQVKT [FBXO28]            3.74
3    PPLPGDMSTGPIAESWCYTQVKVV [SPOPL]            2.27
4    KFLASHFPNRTDQQCQYRWLRVLN [MYBL2]            2.19
5     LQRVPSYDSFDSEDYPAALPNHKP [ETS1]            4.45
6    KEAVQNERDRISTRRSSYEDSSLP [HNF4A]            5.07
7    RRKACQACRFTKCLRVGMLKEGVR [ESRRA]            2.23
8     LSQAPAEGPDLVPAALGSLTTAQI [HES6]            4.35
9   LSLIGVRVDVDTYLTSQLPPLREI [NFE2L1]            3.12
